system: UACC-62 melanoma; experiment: NCI-60 one-dose screen, 48 h (100 = growth as untreated, 0 = no growth, -100 = all killed); settings: 10 µM
Compounds without any hit were thinned out: in the full panel of roughly 83,000, 20% have a hit.
VALUE KIND: growth (%)
Write down the numeric answer in % and omit the unit.

Here are 5 compounds together with their reported answers.
INSERT INTO measurements (compound, study_target, value_kind, measurement) VALUES
  ('COc1ccc(/C(=C2\O[C@@H]([C@H]3COC(C)(C)O3)[C@H]3OC(C)(C)O[C@@H]23)c2cc(OC)c(OC)c(OC)c2)cc1O', 'UACC-62 melanoma', 'growth', 93.2),
  ('COc1ccc(-c2nn(-c3cccc(NC(=O)c4ccc5c(c4)OCCO5)c3)cc2-c2ccncc2)cc1Cl', 'UACC-62 melanoma', 'growth', 34.1),
  ('N=C(N)c1ccc(-c2ccc(-c3cccs3)s2)s1', 'UACC-62 melanoma', 'growth', -90.7),
  ('C(CCCC1=NCCO1)CCCC1=NCCO1', 'UACC-62 melanoma', 'growth', 93),
  ('COc1ccc(-c2nn(-c3cccc(NC(=O)c4cc(C(F)(F)F)cc(C(F)(F)F)c4)c3)cc2-c2ccncc2)cc1Cl', 'UACC-62 melanoma', 'growth', 73.6);

Request body: readout growth, system UACC-62 melanoma, query `O=[N+]([O-])c1ccc(Oc2cccnc2)c([N+](=O)[O-])c1` . Return the value. 84.5

Please provide the recorded growth for `O=C(O)c1ccc(Cl)cc1Nc1ccc(F)cc1` , tested on UACC-62 melanoma. 92.4

* * *

system: SF-295 CNS; assay: NCI-60 one-dose screen, 48 h (100 = growth as untreated, 0 = no growth, -100 = all killed); conditions: 10 µM
The panel holds about 83,000 compounds, 20% with a hit somewhere; the sample as a whole holds those more often.
Each entry falls in a class defined on growth; the bands are class 1: < 30%; class 2: ≥ 30% and < 90%; class 3: ≥ 90%

Examples with answers:
INSERT INTO assay_data (molecule, category_label) VALUES
  ('NC1=NC(=O)C(c2ccccc2)(c2ccccc2)S1', 'class 3'),
  ('O=C(Nc1ccc(Cl)c(Cl)c1)Nc1c(Oc2ccc(Cl)c(Cl)c2)ccc(Cl)c1S(=O)(=O)O', 'class 1'),
  ('COc1cc(C2CC(c3ccc(Nc4ccnc5cc(Cl)ccc45)cc3)=NN2c2ccc(Cl)cc2)cc(OC)c1OC (centres undefined)', 'class 1'),
  ('Cc1ccc(S(=O)(=O)Oc2ccc3c4c(c(=O)oc3c2)CCCCC4)cc1', 'class 2'),
  ('CSc1nc(=O)n(Cc2ccc(F)cc2)c(=O)n1Cc1ccc(C)cc1', 'class 2'),
  ('CSC1=NCCCC1', 'class 3');

Which growth category applies to `Fc1ccc2nc(-c3nc(-c4ccccc4)n4ccccc34)[nH]c2c1` here? class 1

Any idea which band `CC/C(=N\N=C(/CC)c1ccc(Br)cc1)c1ccc(Br)cc1` is in? class 3

* * *

tested on: OVCAR-4 ovarian; experiment: NCI-60 one-dose screen, 48 h (100 = growth as untreated, 0 = no growth, -100 = all killed); settings: 10 µM
Compounds without any hit were thinned out: in the full panel of roughly 83,000, 20% have a hit.
Decide using growth: a value greater than or equal to 70% is TRUE, a smaller one is FALSE.

Consider the worked cases shown below.
INSERT INTO assay_data (compound, study_target, category_label) VALUES
  ('O=C(Nc1cccc(-n2cc(-c3ccncc3)c(-c3cc(O)cc(Cl)c3)n2)c1)Nc1ccc(Cl)c(C(F)(F)F)c1', 'OVCAR-4 ovarian', 'FALSE'),
  ('O=C(Nc1cccc(-n2cc(-c3ccncc3)c(-c3ccc(O)c(Cl)c3)n2)c1)c1cc(C(F)(F)F)cc(C(F)(F)F)c1', 'OVCAR-4 ovarian', 'FALSE'),
  ('C#Cc1ccc(-n2c(/C=C/c3ccc(O)c(OC)c3)nc3ncccc3c2=O)cc1', 'OVCAR-4 ovarian', 'TRUE'),
  ('Cc1ccc(C(=O)N2C/C(=C/c3ccc(F)cc3)C(=O)/C(=C/c3ccc(F)cc3)C2)cc1', 'OVCAR-4 ovarian', 'TRUE');

Check the entry `O=C(CCCCCCC(=O)Nc1cccnc1)NO` : does growth equal or exceed 70%? FALSE

Evaluate Nc1c(C(=O)Nc2cccc(Br)c2)sc2nc3c(cc12)C(O)CCC3 (centres undefined) : growth at minimum 70%? FALSE

* * *

tested on: LOX IMVI melanoma; assay: NCI-60 one-dose screen, 48 h (100 = growth as untreated, 0 = no growth, -100 = all killed); conditions: 10 µM
Compounds without any hit were thinned out: in the full panel of roughly 83,000, 20% have a hit.
VALUE KIND: growth (%)
Write the answer as a number in %, unit excluded.

# count of solved cases: 3
INSERT INTO assay_data (compound, unit_info, measurement) VALUES
  ('COc1ccc(S(=O)(=O)Nc2c(/C=C\c3cc(OC)c(OC)c(OC)c3)ccc(OC)c2O)cc1', '%', 15.5),
  ('ClCC#CCSc1ncnc2c1ncn2CC#CCCl', '%', -35.5),
  ('CC(=O)/C(=C/c1ccccc1)C(=O)CC(C)C', '%', -23);

Recorded growth for `Cc1cccc(Cl)c1NC(=O)c1ccc2nc(NC(=O)NC3CCN(C)CC3)sc2c1` with LOX IMVI melanoma, please? 79.7

Give growth (LOX IMVI melanoma) of the following compound: `CCCCCCCCCCCC[n+]1ccc(C(N)=O)cc1` 25.6

// fetch LOX IMVI melanoma growth for `O=C1/C(=C/c2ccc([N+](=O)[O-])o2)Oc2ccccc21` -60.7

Lookup: growth / LOX IMVI melanoma / CCN(CC)CCC(CNc1c(C)cnc2cc(Cl)ccc12)c1ccc(Cl)cc1 (centres undefined) 33.6

I'm curious: which growth was measured for `O=S(=O)(NCCCNc1nccc(-c2c(-c3ccc(F)cc3)nc3sccn23)n1)c1ccc2ccccc2c1` tested on LOX IMVI melanoma? 37.3

API: value(readout=growth, system=LOX IMVI melanoma) for record `CCOC(=O)N1C/C(=C/c2ccc(OC)cc2)C(=O)/C(=C/c2ccc(OC)cc2)C1` -72.2

Short answer please: growth, LOX IMVI melanoma, entry `N#CCCN(NC(=O)OCc1ccccc1)C(=O)OCc1ccccc1` 94.3

* * *

Listing: growth of selected compounds
test system: SK-OV-3 ovarian; experiment: NCI-60 one-dose screen, 48 h (100 = growth as untreated, 0 = no growth, -100 = all killed); conditions: 10 µM
The panel holds about 83,000 compounds, 20% with a hit somewhere; the sample as a whole holds those more often.
State just the number; it will be interpreted in %.

Some solved cases for reference:
INSERT INTO assay_data (molecular_string, value_kind, measurement) VALUES
  ('CCN(CC)Cc1cc(Nc2ccnc3cc(Cl)ccc23)ccc1OC', 'growth', 102),
  ('O=C(Nc1cccc(-n2cc(-c3ccncc3)c(-c3ccc(O)c(Cl)c3)n2)c1)c1ccc(Cl)c(Cl)c1', 'growth', 80.9),
  ('COc1ccc(-c2nc3sc(-c4ccc(OC)cc4)c(-c4ccc(OC)cc4)n3c2/C=C/c2ccc(C(C)C)cc2)cc1', 'growth', 97.4);

// below: growth requested for another compound
Report growth for `O=C1N=NC2=C1c1c3ccccc3c(O)n1CC2` tested on SK-OV-3 ovarian. 100

* * *

test system: HT29 colon; assay: NCI-60 one-dose screen, 48 h; conditions: 10 µM
This is part of a sample that, as a whole, favours compounds with a hit. Of some 83,000 tested, about 20% had one in any assay. Activity calls are given as the source filed them. The calls were made as follows: active = growth percent below 10; inactive = the rest.
Valid outcomes are listed here; reply with one: True (active), False (inactive)

INSERT INTO results (compound, study_target, category_label) VALUES
  ('Cc1ccc(Nc2nnc(-c3cc(-c4ccncc4)n(-c4ccccc4)n3)s2)cc1', 'HT29 colon', 'False'),
  ('COc1cc(Nc2ccnc(NCCNc3ccnc4cc(Cl)ccc34)n2)cc(OC)c1', 'HT29 colon', 'True'),
  ('COc1ccc([N+](=O)[O-])c(C(=O)O)c1', 'HT29 colon', 'False'),
  ('CCOC1(OCC)OC(c2ccccc2)=C(C#N)C(/C=C\c2ccccc2)C1(OCC)OCC (stereo not drawn)', 'HT29 colon', 'False'),
  ('O=C(Nc1ccc(CN2CCc3nc4cc(O)c(O)cc4cc32)cc1)c1ccc(Cl)c(Cl)c1', 'HT29 colon', 'False');

Any idea what this test logged for `COc1ccc(-c2nn(-c3cccc(NC(=O)c4cccc(C(F)(F)F)c4)c3)cc2-c2ccncc2)cc1Cl` ? True

Give the logged outcome of this assay for the following compound: `COc1ccc2c(c1)sc1nc(-c3ccccc3)c(-c3cccnc3)n12` False

Assay result, entry `Cc1ccc(-c2n[nH]c(=O)c3noc(-c4ccc(C)cc4)c23)cc1` — outcome? True

Dear colleague, could you share the recorded outcome for `CSC1=NCCCC1` when you have a moment? False

Would you mind telling me which call this test gave `O=c1oc2cc(OS(=O)(=O)c3ccccc3)ccc2c2c1CCCCC2` ? False

What did this assay record as the result for `N#CCCN1C/C(=C/c2ccc(Cl)cc2)C(=O)/C(=C/c2ccc(Cl)cc2)C1` ? True

Test call, this compound: O=C(NC(Cc1ccc(O)cc1)C(=O)N=Nc1c(O)[nH]c2ccccc12)c1ccccc1 (stereo not drawn) False

Entry `COc1ccc(-c2nc3ncccn3c2-c2nnc(-c3ccc(F)cc3)o2)cc1` : call = ? False

Tell me the assay call for `Cc1ccc(C(=O)N2C/C(=C/c3ccc(F)cc3)C(=O)/C(=C/c3ccc(F)cc3)C2)cc1` please. False

Call for entry `O=C(CCCCCCC(=O)Nc1cccnc1)NO` : False

I would be grateful if you could indicate the recorded call for `CN(C)CCS(=O)(=O)CCN(C)C` . False

Please share the test call associated with `N=C(N)c1ccc(-c2ccc(-c3cccs3)s2)s1` . True

Answer briefly: the call reported for `COc1ccc2c(c1)O/C(=C\c1ccc([N+](=O)[O-])o1)C2=O` in this assay. True

Test call for this compound, please: `Cc1cc2ccccc2nc1-c1ccccc1F` False

Lab log entry: COc1ccc(C2CC(c3ccc(N(C)C)cc3)=NN2c2ccc(S(N)(=O)=O)cc2)cc1 (stereo not drawn) — outcome as called in the assay? False

Record request — test call for `C#Cc1ccc(-n2c(/C=C/c3cc(OC)cc(OC)c3)nc3ncccc3c2=O)cc1` False

Would you mind telling me which call this test gave `Cc1cc(C)c(NC(=O)c2sc3nc4c(cc3c2N)C(=O)CCC4)c(C)c1` ? True

Per the records of this test, what outcome belongs to `Clc1ccc(Nc2ccnc(NCCCNc3ccnc4cc(Cl)ccc34)n2)cc1` ? True

What classification did `COc1ccc(NC(=O)CSc2nc3ccccc3c(=O)n2CCc2ccccc2)cc1` end up with in this test? False

Identify the outcome logged in this assay for the compound shown: `CCN(CC)CCOc1nc2cc(OC)c(OC)cc2c2c1-c1ccc(OC)cc1C2=O` False
